Can you tell me melting point for the items I'm about to list?

Give a short answer stating reported melting point for COC(OC)(OC)c1cc2ccccc2c(=O)[nH]1 .
131 to 133 °C

Could you please provide reported melting point for Cc1cnc(O)c([N+](=O)[O-])c1 ? Thanks!
247 to 249 °C

Read off the recorded melting point for Clc1sc2ccccc2c1Cl
53 to 55 °C

Consider the compound Clc1nnc(-c2ccccc2Cl)s1 and give its recorded melting point.
93 to 95 °C

Entry NNC(=O)C1COCCO1 (centres undefined) needs its melting point filled in; supply it.
106 to 108 °C

Kindly indicate its recorded melting point. Item: O=C(O)Cc1ccc(NC(=O)C2CC2)cc1
189 to 191 °C

Find the measured melting point of CC1(C)CC(=O)CC(C)(C)N1C(=O)CCl and report it.
67 to 69 °C

In one line, give reported melting point of the entry Cc1nc(N(C)C)sc1C=O .
116 to 118 °C

State, in one line, measured melting point of O=C(O)Cn1c(COc2ccccc2)nc2ccccc21
199 to 201 °C

# return recorded melting point for entry CC(O)(CN)c1ccc(F)cc1 (centres undefined)
69 to 71 °C

Tell me melting point reported for Cc1c(Cl)ccc2ccc(=O)[nH]c12
269 to 271 °C

Annotate the compound CS(=O)(=O)c1snc(O)c1C#N with its measured melting point.
235 to 237 °C

Return value of melting point for input N#Cc1ccc(-c2nnco2)cc1 , no commentary.
142 to 144 °C

State its melting point: CC(Cl)C(=O)N1c2ccccc2CC1C (centres undefined)
135 to 137 °C

Provide measured melting point value, entry: Cc1n[nH]c(-c2ccc(Cl)c(Cl)c2)n1
200 to 202 °C

Give the measured melting point for O=C(c1ccccc1)c1c(Cl)cccc1Cl
82 to 84 °C

Return the recorded melting point value; entry: Cc1cc(Cl)nc(-c2ccccn2)n1
70 to 72 °C

Return reported melting point. Input compound: N#Cc1cn(-c2ccc([N+](=O)[O-])cn2)nc1N
322 to 324 °C

Respond only with melting point recorded for C=CCOc1ccc(O)cc1
36 to 38 °C

Give the reported value of melting point for this record: CCOC(=O)c1c(NC(N)=S)sc(C)c1C
207 to 209 °C

Fill in reported melting point for this entry: Nc1cc(S(=O)(=O)Nc2ccc(Cl)cc2)ccc1N1CCOCC1
55 to 58 °C

Please list melting point recorded for the compound CCOC(=O)c1cnn(C)c1NC(=O)CCl
90 to 92 °C

Supply measured melting point of O=C(O)CSc1ccccc1F in your reply.
80 to 82 °C

Indicate the recorded melting point value for this compound: COc1cccc(OC)c1CO
53 to 55 °C

Read the entry CC(C)(C)OC(=O)N1CC(=O)NC(=O)C1 and write its reported melting point.
129 to 131 °C

Please give measured melting point of the following entry: CC(NC(=O)CCC(=O)O)C(=O)c1ccccc1 (centres undefined)
96 to 98 °C

Report melting point, nothing else, for this compound: Cc1ccccc1C1(C(=O)O)CCCCC1
162 to 164 °C

Identify measured melting point associated with COc1ccccc1C(N)C(=O)O (centres undefined)
169 to 171 °C

Please list melting point recorded for the compound O=C(O)CNc1ccccc1[N+](=O)[O-]
80 to 82 °C
